Below, each of the compounds is paired with its reported pIC50 value.
test: Antiproliferative activity against human NCI-H1373 cells after 72 hrs by MTT assay; type: functional, cell-based; conditions: NCI-H1373, 72 h
// pIC50 is dimensionless: -log10 of concentration (M)

CCOC(=O)N1CCN(/[N+]([O-])=N/Oc2cc(C)c([N+](=O)[O-])cc2[N+](=O)[O-])CC1 ... 5.73
CCOC(=O)N1CCN(/[N+]([O-])=N/Oc2ccc([N+](=O)[O-])cc2[N+](=O)[O-])CC1 ... 6.07
CCOC(=O)N1CCCN(/[N+]([O-])=N/Oc2cc(OC)c([N+](=O)[O-])cc2[N+](=O)[O-])CC1 ... 5.51

What the record says about CCOC(=O)N1CCN(/[N+]([O-])=N/Oc2cc(OC)c([N+](=O)[O-])cc2[N+](=O)[O-])CC1 : pIC50 is 5.68

Documented pIC50 of CCOC(=O)N1CCCN(/[N+]([O-])=N/Oc2cc(C)c([N+](=O)[O-])cc2[N+](=O)[O-])CC1 : 5.52
